// each record: one item and its Ki for Glutamine synthetase (Homo sapiens)
API: value field is a number in µM; no unit string.

The compound listed as CP(=O)(O)CCC(N)C(=O)O (stereo not drawn) [Phosphinothricin analog, 1 (L Isomer)] has a reported Ki of 0.00022

The compound listed as CC(CC(N)C(=O)O)P(C)(=O)O (configuration not stated) [Phosphinothricin analog, 2 (D,L mixture)] has a reported Ki of 0.14
